target: Short transient receptor potential channel 4 (Mus musculus); assay: calcium entry via TRPC4 opening agents – cell-based, HEK293 TRPC4/mu-opioid, Fluo-4 calcium, dose response (AID 434937); conditions: HEK293 TRPC4 cells, Fluo-4 calcium fluorescence ratio; series mostly up to 20 µM
Measured potencies and affinities stand elsewhere. Activity calls are given as the source filed them.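 How the source made its calls: active means primary screen activator hit with a dose response curve and TRPC4 channel activation at any tested dose; inactive means no activation, no dose response, or not a primary hit.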

| INPUT_SMILES | outcome |
| --- | --- |
| CCCN1CCN(C(=S)NCc2ccc(Cl)cc2)CC1 | inactive |
| CCSc1ccccc1C(=O)NCCc1ccccc1 | inactive |
| COc1cc(CNC2CCCCCCC2)cc(Br)c1OCC#N | inactive |

* * *

tested on: TRPC4 beta (transient receptor potential cation channel C4), mouse; assay: potentiation of DAMGO EC20 TRPC4 response – cell-based, Fluo-4, HEK293 TRPC4beta/mu-opioid, confirmation (AID 2555); conditions: DAMGO EC20, Fluo-4 calcium flux, at 10 µM
Calls of active or inactive are those of the source.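 How the source made its calls: active means primary screen hit whose calcium fluorescence ratio, in both repeats, exceeds the weak agonist control mean by 3 SD; inactive means the rest.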
Labels: active, inactive

| COMPOUND | CAT |
| --- | --- |
| CC(C)c1c(O)nc(SCCN(C)C)[nH]c1=O | active |
| COc1ccc(C)c(NC(=O)NCCc2cnc[nH]2)c1 | inactive |
| CCN1CCN(CCC(=O)Nc2ccccc2OC)CC1 | active |
| NC(=O)c1nsc(C(=O)N(Cc2ccccc2Cl)C(C(=O)NCC2CCCO2)c2ccc(O)cc2)c1N (centres undefined) | inactive |
| Cc1ccc(S(=O)(=O)c2c(C(=O)c3ccccc3)cnc3cc4c(cc23)OCCO4)cc1 | inactive |
| COc1ccccc1N1CCN(C(c2cccs2)C(C)NC(=O)c2ccco2)CC1 (centres undefined) | inactive |
| CC(OC(=O)CNC(=O)c1ccccc1F)C(=O)Nc1nc(-c2ccccc2)cs1 (centres undefined) | inactive |
| CC(=O)Cc1nsc(NC(=O)c2csc3c2CCCC3)n1 | inactive |
| CCCC(=O)N/C(N)=N/c1nc(C)c2ccccc2n1 | inactive |
| CC(C)CN(CC(C)C)c1nc(N)c(C#N)c(CC#N)c1C#N | inactive |
| CN(C)CCCSc1nc(-c2ccccc2)nc2c1CCC2 | inactive |
| CC(C)(C)c1ccc(-c2nc3cc(N)ccc3o2)cc1 | inactive |
| Cc1c(C(=O)NCCc2ccccc2)oc2ccccc12 | active |
| O=C1S/C(=C\c2ccc(N3CCOCC3)o2)C(=O)N1Cc1c(F)cccc1Cl | inactive |
| COCCNC(=O)/C(C#N)=C/c1cc(C(C)C)c(OC)cc1C | active |
| CC(C)Oc1cc(N)c(Cl)cc1Cl | inactive |
| O=C(COc1ccc(Cl)cc1)Nc1ccc(C(=O)O)cc1NC(=O)COc1ccc(Cl)cc1 | inactive |
| COc1ccccc1-c1cc(-c2ccccc2)nc(=O)[nH]1 | active |
| CN(CCc1ccccn1)C1CC(=O)N(c2ccc(Cl)cc2)C1=O (centres undefined) | inactive |
| Cc1cc(C)cc(NC(=O)c2nnn(Cc3cc(C)ccc3C)c2N)c1 | active |
| CN1CCN(c2ccc(Cl)cc2NC(=O)CC2OC(=O)c3ccccc32)CC1 (centres undefined) | active |
| CC(C)=CCCC(C)CN1CCC(n2nccc2NC(=O)C2CCCC2)CC1 (centres undefined) | inactive |
| O=C(COc1coc(CN2CCN(c3ccccc3F)CC2)cc1=O)Nc1ccccc1 | inactive |
| CCCCNC(=O)/C(C#N)=C/c1ccc(F)cc1F | active |
| COc1ccc(/C=C(\C#N)C(=O)N2CCOCC2)cc1Br | active |
| O=C(O)CN1C(c2ccccc2O)Nc2ccc(Br)cc2C1c1ccccc1 (centres undefined) | inactive |
| O=C(C1=C[C@H](c2ccc(C(F)(F)F)cc2)C[C@H](OCCCCO)O1)N1CCOCC1 | inactive |
| O=C(Nc1ccc2c(c1)OCO2)c1cnn2cccnc12 | active |
| CC(C)(C)CC(C)(C)NCC(O)COc1ccc2c(c1)CCC2 (centres undefined) | inactive |
| Fc1ccc(CN2C3=NCCCN3c3ccccc32)cc1 | inactive |
| CC(CCc1ccc(O)cc1)N(C)CCc1ccccc1 (centres undefined) | inactive |
| CC(=O)NC(CC(=O)NCC(c1ccco1)N(C)C)c1ccccc1 (centres undefined) | inactive |
| COC(=O)[C@H](Cc1ccccc1)NC(=O)c1ccc2ccccc2n1 | active |
| COc1ccccc1C1/C(=C(\O)c2ccc3c(c2)OCCO3)C(=O)C(=O)N1Cc1cccnc1 (centres undefined) | inactive |
